Reference source: patent US20070208005A1

molecular target: histamine H3 receptor (Homo sapiens); construct: expressed in transfected cells; host or cells: CHO K1 cells (pSwitch/pGene GeneSwitch system, mifepristone-induced), clone 3H3; membranes; experiment: Histamine H3 functional antagonist assay ([35S]-GTPγS SPA on membranes of H3 cells); assay type: biochemical; details: membrane prepared from cultured H3 cells (CHO K1, human H3); histamine at EC80; averages of a number of experiments; read-out: functional pKi (fpKi), H3 functional antagonist assay (converted)
metric name: Ki

[[record]]
compound = "NC(=O)c1ccc(Cc2ccc3c(c2)CCN(C2CCC2)CC3)cn1 [Example E27]"
metric_name = "Ki"
assay_value = "< 3.16 nM"

[[record]]
compound = "c1cnc(Cc2ccc3c(c2)CCN(C2CCC2)CC3)cn1 [Example E30]"
metric_name = "Ki"
assay_value = "< 3.16 nM"

[[record]]
compound = "O=C(c1ccc(Cc2ccc3c(c2)CCN(C2CCC2)CC3)cc1)N1CCCCC1 [Example E18]"
metric_name = "Ki"
assay_value = "< 3.16 nM"

[[record]]
compound = "Cc1noc(-c2ccc(Cc3ccc4c(c3)CCN(C3CCC3)CC4)nc2)n1 [Example E16]"
metric_name = "Ki"
assay_value = "< 3.16 nM"

[[record]]
compound = "CNC(=O)c1cnc(Cc2ccc3c(c2)CCN(C2CCC2)CC3)cn1 [Example E33]"
metric_name = "Ki"
assay_value = "< 0.316 nM"


* * *

biological target: histamine H3 receptor (Homo sapiens, UniProt Q9Y5N1); construct: expressed in transfected cells; host or cells: CHO K1 cells (pSwitch/pGene GeneSwitch system, mifepristone-induced), clone 3H3; membranes; experiment: Histamine H3 functional antagonist assay ([35S]-GTPγS SPA on membranes of H3 cells); assay type: biochemical; details: membrane prepared from cultured H3 cells (CHO K1, human H3); histamine at EC80; averages of a number of experiments; read-out: functional pKi (fpKi), H3 functional antagonist assay (converted)
Sequence (Q9Y5N1 whole entry): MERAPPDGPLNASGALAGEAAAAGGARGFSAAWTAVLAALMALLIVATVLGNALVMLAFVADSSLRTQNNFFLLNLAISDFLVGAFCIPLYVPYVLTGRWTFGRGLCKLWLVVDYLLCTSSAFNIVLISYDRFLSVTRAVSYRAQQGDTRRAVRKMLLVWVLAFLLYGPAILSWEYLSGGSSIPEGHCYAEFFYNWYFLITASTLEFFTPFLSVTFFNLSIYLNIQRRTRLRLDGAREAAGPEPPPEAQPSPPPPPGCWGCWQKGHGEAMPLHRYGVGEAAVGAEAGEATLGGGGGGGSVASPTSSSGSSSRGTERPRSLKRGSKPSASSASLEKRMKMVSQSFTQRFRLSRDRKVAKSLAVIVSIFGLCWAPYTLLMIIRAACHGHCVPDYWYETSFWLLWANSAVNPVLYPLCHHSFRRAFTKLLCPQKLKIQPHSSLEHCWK
Ki listing for selected compounds.
metric name: Ki

[[record]]
compound = "O=C(c1ccc(Cc2ccc3c(c2)CCN(C2CCC2)CC3)nc1)N1CCCC1 [Example E43]"
assay_value = "< 3.16 nM"

[[record]]
compound = "c1cc(-c2csnn2)ccc1Cc1ccc2c(c1)CCN(C1CCC1)CC2 [Example E57]"
assay_value = "< 0.316 nM"

[[record]]
compound = "O=C1CCCN1c1cnc(Cc2ccc3c(c2)CCN(C2CCC2)CC3)cn1 [Example E31]"
assay_value = "< 0.316 nM"

[[record]]
compound = "c1ncn(-c2ccc(Cc3ccc4c(c3)CCN(C3CCC3)CC4)cc2)n1 [Example E60]"
assay_value = "< 0.316 nM"

[[record]]
compound = "CN1CCN(c2ccc(Cc3ccc4c(c3)CCN(C3CCC3)CC4)cn2)C1=O [Example E40]"
assay_value = "< 3.16 nM"

